Tested on: HT-29
assay-notes: Cytotoxicity against human HT-29 cells after 2 days by MTT assay
Type: functional, cell-based
details: HT-29, 48 h
Simple rule here: IC50 less than 4 µM is yes (1), otherwise no (0).

In [3]: df
Out[3]:
                                    molecule  assigned_class
 0  Cc1cccc(N2CCN(CCCNc3nc(NCc4ccco4)c4ccccc4n3)CC2)c1C         yes (1)
 1           CCCCCNc1nc(NCc2ccco2)c2ccccc2n1          no (0)
 2  Fc1ccc2nc(NCCCCN3CCN(c4cccc(Cl)c4Cl)CC3)nc(NCc3ccco3)c2c1         yes (1)
 3  Fc1ccc2nc(NCCCCN3CCOCC3)nc(NCc3ccco3)c2c1         yes (1)
 4  COc1ccc(Nc2nc(NCc3ccco3)c3cc(F)ccc3n2)cc1          no (0)
 5  c1coc(CNc2nc(NCCCCN3CCOCC3)nc3ccccc23)c1         yes (1)
 6  Cc1cccc(N2CCN(CCCNc3nc(NCc4ccco4)c4cc(F)ccc4n3)CC2)c1C         yes (1)
 7  Clc1cccc(N2CCN(CCCCNc3nc(NCc4ccco4)c4ccccc4n3)CC2)c1Cl         yes (1)
 8  Cc1cccc(N2CCN(CCCCNc3nc(NCc4ccco4)c4ccccc4n3)CC2)c1C         yes (1)
 9  Cc1cccc(N2CCN(CCCCNc3nc(NCc4ccco4)c4cc(F)ccc4n3)CC2)c1C         yes (1)
10   c1coc(CNc2nc(NCCCN3CCOCC3)nc3ccccc23)c1          no (0)
11        CN(C)CCCNc1nc(NCc2ccco2)c2ccccc2n1          no (0)
12            CCCCNc1nc(NCc2ccco2)c2ccccc2n1         yes (1)
13    c1coc(CNc2nc(NCCCN3CCCC3)nc3ccccc23)c1          no (0)
14         CCCCNc1nc(NCc2ccco2)c2cc(F)ccc2n1         yes (1)
15  Clc1cccc(N2CCN(CCCNc3nc(NCc4ccco4)c4ccccc4n3)CC2)c1Cl         yes (1)
16  COc1cccc2c1C(=O)c1c(O)c3c(c(O)c1C2=O)C[C@@](O)(C(=O)CO)C[C@@H]3O[C@H]1C[C@H](N)[C@H](O)[C@H](C)O1 [DOXORUBICIN]         yes (1)
17       CCN(CC)CCNc1nc(NCc2ccco2)c2ccccc2n1          no (0)
18    COc1ccc(Nc2nc(NCc3ccco3)c3ccccc3n2)cc1          no (0)
19  Fc1ccc2nc(NCCCN3CCOCC3)nc(NCc3ccco3)c2c1          no (0)

---

Here the recorded inhibition is given for each entry.
measured-on: Heat shock protein HSP90 (Homo sapiens) (UniProt P07900+P08238)
assay-notes: Inhibition of HSP90 in human MCF7 cells assessed as reduction of Her2 protein level at 5 uM after 24 hrs by Western blotting relative to control
Type: cell-based
readout-kind: inhibition

>>> print(df.to_string())
                                smiles_data  readout_kind    val
0  Clc1cccc(N2CCN(CCCCNc3nc(NCc4ccco4)c4ccccc4n3)CC2)c1Cl    inhibition  > 50%
1  Clc1cccc(N2CCN(CCCNc3nc(NCc4ccco4)c4ccccc4n3)CC2)c1Cl    inhibition  > 50%
2  Cc1cccc(N2CCN(CCCCNc3nc(NCc4ccco4)c4cc(F)ccc4n3)CC2)c1C    inhibition  < 50%
3  Cc1cccc(N2CCN(CCCNc3nc(NCc4ccco4)c4ccccc4n3)CC2)c1C    inhibition  < 50%
4  Cc1cccc(N2CCN(CCCCNc3nc(NCc4ccco4)c4ccccc4n3)CC2)c1C    inhibition  > 50%

---

System: HT-29
assay-notes: Cytotoxicity against human HT-29 cells at 10 uM after 2 days by MTT assay
Assay type: functional
details: HT-29, 48 h
inhibition at 10 µM of 80% or higher: criterion met. Under 80%: criterion not met.

>>> df
                                 smiles_data  measured_on     assigned_class
 0         CCCCNc1nc(NCc2ccco2)c2cc(F)ccc2n1        HT-29      criterion met
 1  Fc1ccc2nc(NCCCN3CCOCC3)nc(NCc3ccco3)c2c1        HT-29      criterion met
 2       CCN(CC)CCNc1nc(NCc2ccco2)c2ccccc2n1        HT-29  criterion not met
 3  Cc1cccc(N2CCN(CCCCNc3nc(NCc4ccco4)c4cc(F)ccc4n3)CC2)c1C        HT-29      criterion met
 4  Fc1ccc2nc(NCCCCN3CCOCC3)nc(NCc3ccco3)c2c1        HT-29  criterion not met
 5  Cc1cccc(N2CCN(CCCNc3nc(NCc4ccco4)c4ccccc4n3)CC2)c1C        HT-29      criterion met
 6  Fc1ccc2nc(NCCCCN3CCN(c4cccc(Cl)c4Cl)CC3)nc(NCc3ccco3)c2c1        HT-29      criterion met
 7  Cc1cccc(N2CCN(CCCNc3nc(NCc4ccco4)c4cc(F)ccc4n3)CC2)c1C        HT-29      criterion met
 8   Fc1ccc2nc(NCCN3CCOCC3)nc(NCc3ccco3)c2c1        HT-29  criterion not met
 9  Clc1cccc(N2CCN(CCCCNc3nc(NCc4ccco4)c4ccccc4n3)CC2)c1Cl        HT-29      criterion met
10  c1coc(CNc2nc(NCCCCN3CCOCC3)nc3ccccc23)c1        HT-29  criterion not met
11            CCCCNc1nc(NCc2ccco2)c2ccccc2n1        HT-29      criterion met
12         CN(C)CCNc1nc(NCc2ccco2)c2ccccc2n1        HT-29  criterion not met
13  Clc1cccc(N2CCN(CCCNc3nc(NCc4ccco4)c4ccccc4n3)CC2)c1Cl        HT-29      criterion met
14    CCN(CC)CCNc1nc(NCc2ccco2)c2cc(F)ccc2n1        HT-29  criterion not met
15  Cc1cccc(N2CCN(CCCCNc3nc(NCc4ccco4)c4ccccc4n3)CC2)c1C        HT-29      criterion met
16    c1coc(CNc2nc(NCCCN3CCCC3)nc3ccccc23)c1        HT-29      criterion met
17  COc1ccc(Nc2nc(NCc3ccco3)c3cc(F)ccc3n2)cc1        HT-29      criterion met

---

System: HCT-116
assay-notes: Cytotoxicity against human HCT116 cells at 10 uM after 2 days by MTT assay
Assay type: functional
details: HCT-116, 48 h
readout-kind: inhibition at 10 µM

>>> print(df.to_string())
                                 smiles_data         readout_kind    val
 0  Cc1cccc(N2CCN(CCCNc3nc(NCc4ccco4)c4ccccc4n3)CC2)c1C  inhibition at 10 µM  93.2%
 1       CCN(CC)CCNc1nc(NCc2ccco2)c2ccccc2n1  inhibition at 10 µM  62.6%
 2            CCCCNc1nc(NCc2ccco2)c2ccccc2n1  inhibition at 10 µM  94.8%
 3  Cc1cccc(N2CCN(CCCCNc3nc(NCc4ccco4)c4cc(F)ccc4n3)CC2)c1C  inhibition at 10 µM  97.4%
 4  Clc1cccc(N2CCN(CCCCNc3nc(NCc4ccco4)c4ccccc4n3)CC2)c1Cl  inhibition at 10 µM  94.7%
 5         CCCCNc1nc(NCc2ccco2)c2cc(F)ccc2n1  inhibition at 10 µM  87.8%
 6  Fc1ccc2nc(NCCCCN3CCOCC3)nc(NCc3ccco3)c2c1  inhibition at 10 µM    82%
 7  COc1ccc(Nc2nc(NCc3ccco3)c3cc(F)ccc3n2)cc1  inhibition at 10 µM    74%
 8  c1coc(CNc2nc(NCCCCN3CCOCC3)nc3ccccc23)c1  inhibition at 10 µM  79.8%
 9   Fc1ccc2nc(NCCN3CCOCC3)nc(NCc3ccco3)c2c1  inhibition at 10 µM  12.8%
10  Clc1cccc(N2CCN(CCCNc3nc(NCc4ccco4)c4ccccc4n3)CC2)c1Cl  inhibition at 10 µM  94.5%

---

Tested on: HCT-116
assay-notes: Cytotoxicity against human HCT116 cells after 2 days by MTT assay
Type: functional, cell-based
details: HCT-116, 48 h
In plain terms, low IC50, meaning strictly below 2000 nM, gives True, and everything else gives False.

>>> print(df.to_string())
                                 smiles_data  measured_on  assigned_class
 0  Fc1ccc2nc(NCCCCN3CCN(c4cccc(Cl)c4Cl)CC3)nc(NCc3ccco3)c2c1      HCT-116            True
 1  Fc1ccc2nc(NCCCCN3CCOCC3)nc(NCc3ccco3)c2c1      HCT-116           False
 2  c1coc(CNc2nc(NCCCCN3CCOCC3)nc3ccccc23)c1      HCT-116           False
 3  COc1ccc(Nc2nc(NCc3ccco3)c3cc(F)ccc3n2)cc1      HCT-116           False
 4  Cc1cccc(N2CCN(CCCNc3nc(NCc4ccco4)c4cc(F)ccc4n3)CC2)c1C      HCT-116            True
 5            CCCCNc1nc(NCc2ccco2)c2ccccc2n1      HCT-116           False
 6  Cc1cccc(N2CCN(CCCNc3nc(NCc4ccco4)c4ccccc4n3)CC2)c1C      HCT-116            True
 7        CCCCCNc1nc(NCc2ccco2)c2cc(F)ccc2n1      HCT-116           False
 8       CCN(CC)CCNc1nc(NCc2ccco2)c2ccccc2n1      HCT-116           False
 9  Cc1cccc(N2CCN(CCCCNc3nc(NCc4ccco4)c4ccccc4n3)CC2)c1C      HCT-116            True
10  Clc1cccc(N2CCN(CCCCNc3nc(NCc4ccco4)c4ccccc4n3)CC2)c1Cl      HCT-116           False
11  Fc1ccc2nc(NCCN3CCN(c4cccc(Cl)c4Cl)CC3)nc(NCc3ccco3)c2c1      HCT-116            True
12  Clc1cccc(N2CCN(CCCNc3nc(NCc4ccco4)c4ccccc4n3)CC2)c1Cl      HCT-116           False
13    c1coc(CNc2nc(NCCCN3CCCC3)nc3ccccc23)c1      HCT-116           False
14  Cc1cccc(N2CCN(CCCCNc3nc(NCc4ccco4)c4cc(F)ccc4n3)CC2)c1C      HCT-116            True
15         CCCCNc1nc(NCc2ccco2)c2cccc(F)c2n1      HCT-116            True
16         CCCCNc1nc(NCc2ccco2)c2cc(F)ccc2n1      HCT-116           False
17  Fc1ccc2nc(NCCCN3CCOCC3)nc(NCc3ccco3)c2c1      HCT-116           False

These measurements were taken from ChEMBL document CHEMBL1681778.
